target: T1, Claudin 18.2 (CLDN18.2), expressed on CHOS-CLDN 18.2 / HEK293-CLDN 18.2 / HCC827-CLDN 18.2 cells (human, UniProt P56856-2 1-261); test: FACS, CHOS-CLDN18.2 cells
T1 construct: whole, on cells; The species is not repeated for the CHOS-CLDN 18.2 cells; also called claudin-18A2
Value type: EC50 (µg/mL)
Response body: numeric value in µg/mL, unit text excluded.

# get_value(readout='EC50', item= QP14501448 (antibody, human IgG1, kappa, V domains shown, Humanized from QP199200) VH: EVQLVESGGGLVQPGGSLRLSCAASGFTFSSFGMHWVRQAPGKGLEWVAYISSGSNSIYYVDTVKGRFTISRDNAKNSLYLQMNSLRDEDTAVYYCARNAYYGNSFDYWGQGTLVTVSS VL: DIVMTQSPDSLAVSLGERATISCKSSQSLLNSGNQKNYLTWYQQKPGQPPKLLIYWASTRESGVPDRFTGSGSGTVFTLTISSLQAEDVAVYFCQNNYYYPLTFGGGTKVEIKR )
0.498
